B1: HDV Ribozyme (parent)
chain: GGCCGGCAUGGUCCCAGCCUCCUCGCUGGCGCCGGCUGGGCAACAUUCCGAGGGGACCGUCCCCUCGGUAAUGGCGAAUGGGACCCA

variants of: B1; experiment: self-cleavage, relative activity (ratio to wild type); higher = more cleavage; co-transcriptional
Quick rule for you: self-cleavage at 0.2 or higher means Condition met, lower means Condition not met.

| alteration | answerLabel |
| --- | --- |
| G67U G82U | Condition met |
| G35U C64A | Condition met |
| C3U G40U | Condition met |
| C3G G40A | Condition met |
| G53A A87G | Condition met |
| A42C G53A | Condition met |
| U47C C49U | Condition met |
| U46G U69A | Condition met |
| A51G G53U | Condition met |
| G17U G68U | Condition met |
| U20G U27A | Condition met |
| A42G U69C | Condition met |
| G50A G55A | Condition met |
| C63G C85U | Condition met |
| C14G U46A | Condition met |
| G34A U69A | Condition not met |
| G2C G29U | Condition not met |
| G55U G82U | Condition met |
| G6A A56U | Condition met |
| G5A C7U | Condition not met |
| U46G G54C | Condition met |
| C22G C75U | Condition not met |
| A42U G76A | Condition met |
| C4G G31A | Condition not met |
| U12A U23C | Condition met |
| C48U G67U | Condition met |
| G35U C57U | Condition met |
| G34C A87U | Condition not met |
| G6C C36G | Condition not met |
| G10C C58G | Condition met |
| C13U G73U | Condition not met |
| C48G A56G | Condition met |
| G34C U46C | Condition met |
| G2A G81U | Condition not met |
| G2U G5C | Condition not met |
| C63U C86U | Condition met |
| C24G G82A | Condition not met |
| U37C A45G | Condition met |
| U12G C48U | Condition met |
| C21A C44A | Condition not met |
| G31C G73A | Condition not met |
| C18A G31A | Condition not met |
| C36U A78C | Condition not met |
| C15G A45G | Condition met |
| G50C G81A | Condition met |
| U9A G74C | Condition not met |
